# tgt: Bromodomain-containing protein 4 (Homo sapiens, UniProt O60885)
# experiment.summary: Inhibition of BRD4 BD1 (unknown origin) using biotinylated ligand incubated for 60 mins by TR-FRET assay
Task for the reader: assign each of the following compounds its reported IC50.
Give the value in µM but do not write µM after it.

IC50 for `Cc1noc2c1-c1ccc(-c3cn(C)cn3)cc1C(c1ccc(Cl)cc1)=N[C@H]2CC(N)=O` ?
0.011

IC50 for `Cc1nnc2n1-c1ccccc1C(c1ccc(Cl)cc1)=NC2` ?
1.8

IC50 for `Cc1ccc(C2=N[C@@H](CC(N)=O)c3onc(C)c3-c3ccccc32)cc1` ?
0.052

IC50 for `Cc1noc2c1-c1ccccc1C(c1ccc(C#N)cc1)=N[C@H]2CC(N)=O` ?
0.094

IC50 for Cc1noc2c1-c1ccccc1C(c1ccc(Cl)cc1)=N[C@H]2CC(N)C(F)(F)F (stereo partly specified) ?
11

IC50 for `Cc1noc2c1-c1c[nH]c(=O)cc1C(c1ccc(Cl)cc1)=NC2` ?
0.53

IC50 for `Cc1cccc2c1C(c1ccc(Cl)cc1)=N[C@@H](CC(N)=O)c1onc(C)c1-2` ?
0.013

IC50 for `Cc1noc2c1-c1ccccc1C(c1ccc(Cl)cc1)=NN2` ?
0.88

IC50 for `Cc1noc2c1-c1ccc(-c3ccc(N)nc3)cc1C(c1ccc(Cl)cc1)=N[C@H]2CC(N)=O` ?
0.007

IC50 for `Cc1noc2c1-c1cn(C)nc1C(c1ccc(Cl)cc1)=NC2` ?
0.59

IC50 for `Cc1noc2c1-c1ccccc1C(c1ccccc1)=N[C@H]2CC(N)=O` ?
0.11

IC50 for Cc1noc2c1-c1ccccc1C(c1ccc(Cl)cc1)=NC2C(N)=O (stereo unspecified) ?
15

IC50 for `CCNC(=O)C[C@@H]1N=C(c2ccc(Cl)cc2)c2ccccc2-c2c(C)noc21` ?
0.052

IC50 for `COCCNC(=O)C[C@@H]1N=C(c2ccc(Cl)cc2)c2ccccc2-c2c(C)noc21` ?
0.056

IC50 for `Cc1noc(N)c1-c1ccccc1` ?
20

IC50 for `COc1ccc2c(c1)C(c1ccc(Cl)cc1)=N[C@@H](CC(N)=O)c1onc(C)c1-2` ?
0.017

IC50 for `CNc1ccc2c(n1)C(c1ccc(Cl)cc1)=NCc1onc(C)c1-2` ?
0.059

IC50 for `COc1ccc(C2=N[C@@H](CC(N)=O)c3onc(C)c3-c3ccccc32)cc1` ?
0.048

IC50 for CCNC(=O)NC1N=C(c2ccc(Cl)cc2)c2ccccc2-c2c(C)noc21 (stereo unspecified) ?
0.033

IC50 for `COc1nccc2c1C(c1ccc(Cl)cc1)=NCc1onc(C)c1-2` ?
0.44

---

# experiment.summary: Tmax in mouse at 30 mg/kg,po
# Format: ADME, organism-based
# experimental.parameters: in vivo
observable: Tmax (min)
Give the value in min but do not write min after it.

Tmax for Cc1noc2c1-c1ccccc1C(c1ccc(Cl)cc1)=N[C@H]2CC(N)=O [PELABRESIB] ?
25.2

---

# experiment.summary: Volume of distribution at steady state in rat at 1 mg/kg,iv
# Type: ADME, organism-based
# experimental.parameters: in vivo, read-out: Vdss
observable: Vd
The reply must contain the numeric value and, after it, the unit.

Vd for `COc1ccc2c(c1)C(c1ccc(Cl)cc1)=N[C@@H](CC(N)=O)c1onc(C)c1-2` ?
1.7 L/kg

Vd for `Cc1noc2c1-c1ccccc1C(c1ccc(C#N)cc1)=N[C@H]2CC(N)=O` ?
1.2 L/kg

Vd for `Cc1cccc2c1C(c1ccc(Cl)cc1)=N[C@@H](CC(N)=O)c1onc(C)c1-2` ?
2.5 L/kg

Vd for `Cc1noc2c1-c1ccc(-c3ccc(N)nc3)cc1C(c1ccc(Cl)cc1)=N[C@H]2CC(N)=O` ?
5.4 L/kg

Vd for Cc1noc2c1-c1ccccc1C(c1ccc(Cl)cc1)=N[C@H]2CC(N)=O [PELABRESIB] ?
1.3 L/kg

Vd for `COCCNC(=O)C[C@@H]1N=C(c2ccc(Cl)cc2)c2ccccc2-c2c(C)noc21` ?
1.8 L/kg
